Listing: KD relative to parental chimera of selected binders
# targetOrSystem: T1, Human VSIG4-L-His (human, UniProt Q9Y279 20-283)
# T1 construct: long isoform ECD with His tag; also called hVSIG4-L
# T1 sequence: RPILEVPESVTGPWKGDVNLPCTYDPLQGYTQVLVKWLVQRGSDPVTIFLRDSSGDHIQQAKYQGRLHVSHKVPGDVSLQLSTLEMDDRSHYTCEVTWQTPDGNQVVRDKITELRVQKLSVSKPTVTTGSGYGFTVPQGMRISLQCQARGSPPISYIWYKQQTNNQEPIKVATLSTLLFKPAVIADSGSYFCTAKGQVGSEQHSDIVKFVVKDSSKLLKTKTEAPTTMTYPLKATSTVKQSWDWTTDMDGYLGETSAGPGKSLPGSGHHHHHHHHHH
# experimentalDetails: BLI, IgG on AHC sensor, antigen 100 nM
Could you give me the number in fold? Just the number is fine.

# binder, uom, KD relative to parental chimera
measured = [
    ("h14C05.C humanized IgG4 (S228P) kappa (antibody, V domains shown) VH: QVQLVQSGAEVKKPGASVKVSCKASGYTFTNYGMNWVRQAPGQGLEWMGSINTYTGEATYADKFQGRVTMTLDTSTNTAYMELSSLRSEDTAVYYCARGDYYGRGTWFAYWGQGTLVTVSS VL: ETQVTQSPSSLSASVGDRVTITCRASQDVSTAVAWYQQKPGKAPKLLIYSASYRYPGVPSRFSGSGSGTDFTLTISSLQPEDFATYYCQQDYSSPWTFGGGTKLEIKR", "fold", 0.6),
]

(Q) Give reported KD relative to parental chimera value for h14C05.G humanized IgG4 (S228P) kappa (antibody, V domains shown) VH: QVQLVQSGSELKKPGASVKVSCKASGYTFTNYGMNWVRQAPGQGLEWMGSINTYTGEATYAQGFTGRFVFSLDTSVSTAYLQISSLKAEDTAVYYCARGDYYGRGTWFAYWGQGTLVTVSS VL: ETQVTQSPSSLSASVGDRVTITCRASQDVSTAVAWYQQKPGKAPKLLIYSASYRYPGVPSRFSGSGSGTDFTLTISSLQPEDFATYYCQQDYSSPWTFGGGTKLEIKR
(A) 0.8

(Q) Give reported KD relative to parental chimera value for h14D12.C humanized IgG4 (S228P) kappa (antibody, V domains shown) VH: QIQLVQSGAEVKKPGASVKVSCKASGYTFTNYGMNWVRQAPGQGLEWMGLINTYTGEPTYADKFQGRVTFTLDTSASTAYMELSSLRSEDTAVYFCARERIYGYLHYFDYWGQGTTVTVSS VL: DVVMTQSPDSLAVSLGERATINCKASQSVDYDGDSYMNWYQQKPGQPPKLLIYAASNRESGVPDRFSGSGSGTDFTLTISSLQAEDVAVYYCQQSNEDPRTFGGGTKLEIKR
(A) 1.4
